Attribution: the METLIN SMRT retention time set (Domingo-Almenara et al. 2019)

Below, each entry is listed with its recorded RP-LC retention time.
- experimentalProtocol: gradient 5% acetonitrile 3 min, to 50% in 2 min, to 85% in 15 min, held 3 min, 100 µL/min
- conditionInfo: column: Zorbax Extend-C18 2.1 x 50 mm; eluents: water / acetonitrile, 0.1% formic acid
measuredProperty: RP-LC retention time

INSERT INTO results (compound, observedvalue) VALUES
  ('Cc1cccc(CSc2nnc(CNC(=O)c3ccc(S(=O)(=O)N(C)C)cc3)o2)c1', '803 s'),
  ('O=C(C1CCN(c2nc3ccc(-c4ccsc4)nc3s2)CC1)N1CCCCC1', '911 s'),
  ('O=C(NCCc1cccs1)c1cccc2[nH]cc(CN3CCOCC3)c12', '592 s'),
  ('CCNC(=O)N1CCCC(c2cccc(C(=O)NCc3ccc(C)c(C)c3)c2)C1 (stereo unspecified)', '866 s'),
  ('CCOC(=O)c1[nH]c(C)c(CCC(=O)N2CCC(C(=O)NCc3ccc(C)o3)CC2)c1C', '739 s'),
  ('COc1cc([C@H]2c3cc4c(cc3[C@@H](O)[C@H](CO)[C@H]2C(=O)N2CCCc3ccccc32)OCO4)cc(OC)c1OC', '734 s'),
  ('CN1CCN(C(=O)c2nnc(-c3ccc(S(=O)(=O)N4CCCC4)cc3)o2)CC1', '594 s'),
  ('Cc1nnc2c(NC(=O)c3cc(F)ccc3F)cccn12', '705 s'),
  ('O=C(Cn1nc2c(N3CCCCCC3)nccn2c1=O)NCc1cc(F)cc(F)c1', '744 s'),
  ('CCS(=O)(=O)N1CCC(c2noc(COCCOC)n2)CC1', '681 s'),
  ('CC(=O)N1CCCc2cc(S(=O)(=O)CCC(=O)N3CCN(c4cccc(C)c4)C(C)C3)ccc21 (stereo unspecified)', '750 s'),
  ('Cc1ccn2c(NC(=O)CC(C)(C)C)c(-c3ccc(F)cc3)nc2c1', '669 s'),
  ('COc1ccc(NC(=O)N2CCC(n3c(-c4ccco4)nc4cccnc43)C2)cc1 (stereo unspecified)', '708 s'),
  ('COc1ccc(CN2CCC3(CC2)CC(O)CCO3)c(OC)c1 (stereo unspecified)', '581 s'),
  ('Cc1cc(C)n(-c2ccc(N3CCN(C(=O)COc4ncccn4)CC3)nn2)n1', '596 s'),
  ('O=C(Nc1ccccc1)N1CCOC(CN(CC2CCCO2)C(=O)c2ccc3c(c2)OCO3)C1 (stereo unspecified)', '738 s'),
  ('CC(Oc1ccc(C(C)(C)C)cc1)C(=O)Nc1ccnn1Cc1ccco1 (stereo unspecified)', '1020 s'),
  ('O=C(Nc1cccnc1)c1cccc(S(=O)(=O)N2CCCCCC2)c1', '631 s'),
  ('O=C(Cc1csc(NC(=O)Nc2ccccc2)n1)NCCc1c[nH]c2ccccc12', '891 s'),
  ('Cn1nc(N2CCCC(NC(=O)c3cccs3)C2)ccc1=O (stereo unspecified)', '627 s'),
  ('O=C(NCCN1CCCC1)c1nnc(-c2ccc(S(=O)(=O)N3CCCC3)cc2)o1', '602 s'),
  ('Cc1ccc(-c2noc(Cn3c(=O)n(-c4ccccc4F)c(=O)c4sccc43)n2)cc1C', '1090 s'),
  ('COc1ccccc1C(=O)Nc1nnc(C2CC(=O)N(c3ccccc3)C2)o1 (stereo unspecified)', '720 s'),
  ('O=C(c1ccccc1F)N1CCc2nc(-c3ccccc3)ncc2C1', '883 s'),
  ('Cc1ccc(-n2ncc3c(=O)n(Cc4nc(-c5cccc(Br)c5)no4)cnc32)cc1', '1180 s'),
  ('CC(C)NC(=O)c1ccc(OCC2CCN(C(=O)c3ccccc3Cl)CC2)cc1', '820 s');
